All values here come from PubChem BioAssay (NCI).

test system: SNB-75 CNS; test: NCI tumour cell line growth inhibition, 48 h
quantity measured: TGI (µM)
Write it as a number; the unit µM goes unstated.

Look up and state reported TGI for COC(=O)C1OC(O[C@H]2CC[C@]3(C)[C@H]4CC=C5[C@@H]6CC(C)(C)CC[C@]6(C(=O)OC6OCC(O)C(O)C6OC6OC(C)C(OC7OCC(OC8OCC(O)C(O)C8O)C(O)C7O)C(O)C6O)[C@H](O)C[C@@]5(C)[C@]4(C)CC[C@H]3C2(C)C)C(O)C(O)C1O (some centres not stated)
11.3

State its TGI: COc1ccc(N=C2C(=S)N(c3ccc(OC)cc3)/C(=N/S(=O)(=O)c3ccccc3)N2c2ccccc2)cc1
35.1

Provide only the value of recorded TGI for CC1CN1c1c(C(=O)/C=C/c2ccc(Cl)cc2)c(-c2ccccc2)nn(C)c1=O (configuration not stated)
8.28

Check the records and state TGI for Cc1cccc(C(C)C)c1NC(=O)C(=O)C(C(=O)c1ccccc1F)C1OC(=O)c2ccccc21 (configuration not stated)
45.9
